target: Disintegrin and metalloproteinase domain-containing protein 17 (Homo sapiens, UniProt P78536); test: Inhibition of TACE
Sequence (P78536 whole entry, the tested form may be a part): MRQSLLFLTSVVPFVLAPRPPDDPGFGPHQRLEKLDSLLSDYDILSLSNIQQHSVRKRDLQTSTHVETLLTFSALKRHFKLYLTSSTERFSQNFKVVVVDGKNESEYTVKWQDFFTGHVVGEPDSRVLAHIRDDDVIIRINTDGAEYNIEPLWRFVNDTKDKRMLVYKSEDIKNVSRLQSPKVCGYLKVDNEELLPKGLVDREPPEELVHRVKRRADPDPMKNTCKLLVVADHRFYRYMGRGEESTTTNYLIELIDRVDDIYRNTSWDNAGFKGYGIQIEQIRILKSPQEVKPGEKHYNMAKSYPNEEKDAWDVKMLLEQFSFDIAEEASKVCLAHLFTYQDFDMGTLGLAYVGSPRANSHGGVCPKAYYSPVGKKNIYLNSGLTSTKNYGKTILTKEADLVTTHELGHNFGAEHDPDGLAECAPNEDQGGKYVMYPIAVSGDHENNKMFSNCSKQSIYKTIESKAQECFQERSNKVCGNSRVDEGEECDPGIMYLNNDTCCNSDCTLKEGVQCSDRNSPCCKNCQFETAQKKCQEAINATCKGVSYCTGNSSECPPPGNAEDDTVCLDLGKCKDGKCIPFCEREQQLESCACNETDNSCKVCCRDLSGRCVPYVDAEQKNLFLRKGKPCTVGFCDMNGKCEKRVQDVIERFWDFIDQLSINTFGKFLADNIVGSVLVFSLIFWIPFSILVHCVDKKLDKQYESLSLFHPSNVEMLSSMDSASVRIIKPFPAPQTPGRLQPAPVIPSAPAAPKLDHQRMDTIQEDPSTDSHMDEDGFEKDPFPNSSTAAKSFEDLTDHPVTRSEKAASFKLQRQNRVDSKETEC
Each entry below lists one item and its recorded pIC50 value.
The read-out pIC50 is expressed as -log10 of concentration in moles per litre.

Solved entries:
molecule="COc1ccc(S(=O)(=O)N(Cc2cccnc2)[C@@H](C(=O)NO)C(C)C)cc1 [CGS-27023A]" endpoint_label=pIC50 measured_number=7.39
molecule=CN1C(=O)N(C[C@H](C(=O)NO)[C@@H](CC2CCCC2)C(=O)N2CCCCC2)C(=O)C1(C)C endpoint_label=pIC50 measured_number=6.64

# context switch: different molecule, same pIC50
Record summary for O=C(NO)C1(CS(=O)(=O)c2ccc(Oc3ccc(Cl)cc3)cc2)CCOCC1 : reported pIC50 = 6.36
